- Measured On: UniProtKB Q92993
- Sequence (Q92993 whole entry): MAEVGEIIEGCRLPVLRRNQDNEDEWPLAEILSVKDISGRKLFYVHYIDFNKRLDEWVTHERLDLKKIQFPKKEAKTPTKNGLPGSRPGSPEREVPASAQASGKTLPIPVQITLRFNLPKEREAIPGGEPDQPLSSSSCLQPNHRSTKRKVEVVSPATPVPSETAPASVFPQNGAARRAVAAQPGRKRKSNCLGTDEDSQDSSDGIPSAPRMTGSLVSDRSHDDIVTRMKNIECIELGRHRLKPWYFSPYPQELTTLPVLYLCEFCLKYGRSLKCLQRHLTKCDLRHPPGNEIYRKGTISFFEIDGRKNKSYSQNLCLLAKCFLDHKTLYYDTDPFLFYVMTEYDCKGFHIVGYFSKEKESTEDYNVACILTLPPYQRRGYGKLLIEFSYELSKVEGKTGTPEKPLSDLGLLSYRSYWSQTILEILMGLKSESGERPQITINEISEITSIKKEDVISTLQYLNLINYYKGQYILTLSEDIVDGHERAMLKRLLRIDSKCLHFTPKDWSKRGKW
- Procedure Text: KAT5 assay (SAMDI-MS acetylation of H4 1-21 peptide)
- Assay type: biochemical
- Measurement Setup: Morrison equation fit; replicate number in parentheses; read-out: KAT5 Ki (nM) (replicate number)
Assign Ki to each entry below.
Numbers only, in nM.

>>> endpoint_value("COc1cc2c(NS(=O)(=O)c3c(OC)cc(C4COC(C)(C)CO4)cc3OC)noc2cc1Nc1cc(C2CC2)n[nH]1 (single isomer, unassigned) [Example 186]")
5.8
>>> endpoint_value("CCn1nc(Nc2cc3onc(NS(=O)(=O)c4c(OC)cccc4OC)c3cc2OC)cc1C")
2160
>>> endpoint_value("COc1cc2c(NS(=O)(=O)c3c(OC)cccc3OC)noc2cc1Nc1ccccn1")
1130
>>> endpoint_value("COc1cc2c(NS(=O)(=O)c3cc(C(C)C)c(C)cc3OC)noc2cc1Nc1cc[nH]n1")
189
>>> endpoint_value("COc1cc2c(NS(=O)(=O)c3c(OC)cc(-c4cnn(C)n4)cc3OC)noc2cc1Nc1cc(C2CC2)n[nH]1")
159

# per-item lookup of Ki; items listed below
1. COc1cc2c(NS(=O)(=O)c3c(OC)cccc3OC)noc2cc1Nc1cc(C2CC2)n[nH]1
2. COc1cccc(OC)c1S(=O)(=O)Nc1noc2cc(Nc3cc(C4CC4)n[nH]3)c(F)c(OC)c12
3. COc1cccc(OC)c1S(=O)(=O)Nc1noc2cc(N[C@H]3CCOC3)cc(OC)c12
4. CCc1nc(Nc2cc3onc(NS(=O)(=O)c4c(OC)cccc4OC)c3cc2OC)n[nH]1
5. COc1cc2c(NS(=O)(=O)c3c(OC)cccc3OC)noc2cc1Nc1nc(C)cc(C)n1
6. COc1cc2c(NS(=O)(=O)c3c(OC)cc(C4COCCN4C)cc3OC)noc2cc1Nc1cc(C2CC2)[nH]n1 (single isomer, unassigned)

1: 131; 2: 591; 3: 44900; 4: 4600; 5: 45000; 6: 94.8

# per-item lookup of Ki; items listed below
1. COc1cc2c(NS(=O)(=O)c3c(OC)cc(CN4CC(F)C4)cc3OC)noc2cc1Nc1cc(C2CC2)n[nH]1
2. COc1cc2c(NS(=O)(=O)c3c(OC)cc([C@@H]4CCCO4)cc3OC)noc2cc1Nc1cc(C2CC2)n[nH]1
3. COc1cc2c(NS(=O)(=O)c3c(OC)cccc3OC)noc2cc1Nc1cc([C@H]2CC2(F)F)[nH]n1 (single isomer, unassigned)
4. COc1cc2c(NS(=O)(=O)c3c(OC)cc(CN4CC[C@@H](F)C4)cc3OC)noc2cc1Nc1cc(C2CC2)n[nH]1
5. CCc1cc(Nc2cc3onc(NS(=O)(=O)c4ccc(C(=O)NCCCCCN)cc4OC)c3cc2OC)[nH]n1
6. COc1cc2c(NS(=O)(=O)c3ccccc3OC)noc2cc1Nc1cc[nH]n1
7. CCOc1cc(C)c(F)cc1S(=O)(=O)Nc1noc2cc(Nc3cc[nH]n3)c(OC)cc12
8. COc1cc2c(NS(=O)(=O)c3c(OC)cc(-c4ncco4)cc3OC)noc2cc1Nc1cc(C2CC2)n[nH]1

[25.4, 156, 39.3, 192, 2050, 488, 243, 46.9]

# per-item lookup of Ki; items listed below
1. CCCc1ccc(S(=O)(=O)Nc2noc3cc(Nc4cc(CC)[nH]n4)c(OC)cc23)cc1
2. COc1cc2c(NS(=O)(=O)c3c(OC)cccc3OC)noc2cc1Nc1ncn(C)n1
3. COc1cc2c(NS(=O)(=O)c3c(OC)cc(-c4ncc(CN(C)C)cn4)cc3OC)noc2cc1Nc1cc(C2CC2)n[nH]1
4. COc1cccc(F)c1S(=O)(=O)Nc1noc2cc(Nc3cc(C4CC4)n[nH]3)c(F)c(OC)c12
5. CCOc1ccccc1S(=O)(=O)Nc1noc2cc(Nc3cc[nH]n3)c(OC)cc12
6. COc1cc2c(NS(=O)(=O)c3c(OC)cccc3OC(C)C)noc2cc1Nc1cc[nH]n1
7. COc1cccc(OC)c1S(=O)(=O)Nc1noc2cc(Nc3cc[nH]n3)cc(OC)c12
8. COc1cc2c(NS(=O)(=O)c3c(OC)cc(C4COC(C)(C)CO4)cc3OC)noc2cc1Nc1cc(C2CC2)n[nH]1 (single isomer, unassigned) [Example 185]

[3940, 1760, 25.4, 336, 630, 2740, 441, 1]

# per-item lookup of Ki; items listed below
1. COc1cc2c(NS(=O)(=O)c3ccc(C)cc3OC)noc2cc1Nc1cc[nH]n1
2. COc1cc2c(NS(=O)(=O)c3c(OC)cccc3OC)noc2cc1Nc1cc(Cc2ccccc2)n[nH]1

1: 418; 2: 326

====

Assign Ki to each entry below.
- Measured On: KAT8 Full length enzyme (Homo sapiens (Human), UniProt Q9H7Z6)
- Sequence (Q9H7Z6 whole entry): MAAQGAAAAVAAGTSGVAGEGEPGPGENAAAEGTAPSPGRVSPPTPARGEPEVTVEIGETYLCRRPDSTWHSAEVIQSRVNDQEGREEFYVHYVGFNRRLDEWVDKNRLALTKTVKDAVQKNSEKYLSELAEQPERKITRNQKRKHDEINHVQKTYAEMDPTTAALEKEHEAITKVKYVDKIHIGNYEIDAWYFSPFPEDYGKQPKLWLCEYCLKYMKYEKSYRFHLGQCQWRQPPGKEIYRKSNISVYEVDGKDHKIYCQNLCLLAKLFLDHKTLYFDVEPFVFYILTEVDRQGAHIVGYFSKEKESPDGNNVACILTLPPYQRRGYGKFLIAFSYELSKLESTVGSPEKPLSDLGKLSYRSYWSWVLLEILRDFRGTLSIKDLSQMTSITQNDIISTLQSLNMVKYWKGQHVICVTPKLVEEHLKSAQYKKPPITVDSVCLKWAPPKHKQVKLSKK
- Procedure Text: KAT8 assay (SAMDI-MS acetylation of H3 1-21 peptide)
- Type: biochemical
- Measurement Setup: Morrison equation fit; replicate number in parentheses; read-out: KAT8 Ki (nM) (replicate number)
Numbers only, in nM.

# annotated cases, reported Ki shown
>>> endpoint_value("COc1cc2c(NS(=O)(=O)c3ccc(C)cc3OC)noc2cc1Nc1cc[nH]n1")
1060
>>> endpoint_value("COc1cc2c(NS(=O)(=O)c3c(OC)cccc3OC)noc2cc1Nc1cc(C(F)F)n[nH]1")
8920
>>> endpoint_value("COc1cc2c(NS(=O)(=O)c3c(OC)cc(C4CN(C)CCO4)cc3OC)noc2cc1Nc1cc(C2CC2)n[nH]1 (single isomer, unassigned) [Example 152]")
1160
>>> endpoint_value("COc1cc2c(NS(=O)(=O)c3c(OC)cc(C4CCCN4C)cc3OC)noc2cc1Nc1cc(C2CC2)n[nH]1 (racemic)")
2140
>>> endpoint_value("COc1cc2c(NS(=O)(=O)c3c(OC)cc([C@H]4CCCN4C)cc3OC)noc2cc1Nc1cc(C2CC2)n[nH]1")
3690
>>> endpoint_value("CCOc1cc(C(F)F)ccc1S(=O)(=O)Nc1noc2cc(Nc3cc(C4CC4)n[nH]3)c(F)c(OC)c12")
10300
>>> endpoint_value("COc1cc2c(NS(=O)(=O)c3c(OC)cc(-c4nccc(C(C)N(C)C)n4)cc3OC)noc2cc1Nc1cc(C2CC2)n[nH]1 (stereo not drawn)")
3490
>>> endpoint_value("COc1cccc(OC)c1S(=O)(=O)Nc1noc2cc(Nc3ccon3)cc(OC)c12")
2250

Consider the additional compound presented here.
// Input: CCOc1cccc(OC)c1S(=O)(=O)Nc1noc2cc(Nc3cc[nH]n3)c(OC)cc12 . Output its Ki only. 676

====

- Measured On: KAT7+JADE1+EAF6+ING5 4 protein complex (Homo sapiens (Human), UniProt O95251)
- Procedure Text: KAT7 JADE1 assay (SAMDI-MS acetylation of H3 1-21 peptide)
- Format: biochemical
- Measurement Setup: Morrison equation fit; replicate number in parentheses; read-out: KAT7 JADE1 Ki (nM) (replicate number)
Assign Ki to each entry below.
Numbers only, in nM.

# annotated cases, reported Ki shown
>>> endpoint_value("COc1cc2c(NS(=O)(=O)c3c(OC)cc(-c4ncc(C)cn4)cc3OC)noc2cc1Nc1cc(C2CC2)n[nH]1 [Example 213]")
3.9
>>> endpoint_value("COc1cc2c(NS(=O)(=O)c3c(OC)cccc3OC)noc2cc1Nc1cc(Cc2ccccc2)n[nH]1 [Example 109]")
18.5
>>> endpoint_value("COc1cc2c(NS(=O)(=O)c3c(OC)cccc3OC)noc2cc1Nc1cc(C2(C)CC2)n[nH]1 [Example 94]")
58.1

# per-item lookup of Ki; items listed below
1. CCc1cc(Nc2cc3onc(NS(=O)(=O)c4c(OC)cc(-c5nccn5C)cc4OC)c3cc2OC)[nH]n1 [Example 237]
2. CCn1cc(Nc2cc3onc(NS(=O)(=O)c4c(OC)cccc4OC)c3cc2OC)nn1 [Example 42]
3. COc1cc(F)ccc1S(=O)(=O)Nc1noc2cc(Nc3cc(C4CC4)n[nH]3)c(F)c(OC)c12 [Example 97]
4. COc1cc2c(NS(=O)(=O)c3c(OC)cccc3OC)noc2cc1Nc1cc([C@H](C)O)n[nH]1 (single isomer, unassigned) [Example 86]

1. 15.4
2. 316
3. 57.7
4. 552

====

- Measured On: KAT7+JADE1+EAF6+ING5 4 protein complex (Homo sapiens (Human), UniProt O95251)
- Procedure Text: KAT7 JADE1 assay (SAMDI-MS acetylation of H3 1-21 peptide)
- Assay type: biochemical
- Measurement Setup: replicate number in parentheses; read-out: KAT7 JADE1 Ki (nM) (replicate)
Attribute Measured: Ki (nM)
Give bare numbers, in nM.

>>> endpoint_value("COc1cc2c(NS(=O)(=O)c3c(OC)cc(N4CC(OC)C4)cc3OC)noc2cc1Nc1cc(C2CC2)n[nH]1")
5
>>> endpoint_value("COc1cc2c(NS(=O)(=O)c3c(OC)cc(C(C)(C)OC)cc3OC)noc2cc1Nc1cc(C2CC2)n[nH]1")
7
>>> endpoint_value("COc1cc2c(NS(=O)(=O)c3c(OC)cc(N4CCCC4=O)cc3OC)noc2cc1Nc1cc(C2CC2)n[nH]1")
6.4
>>> endpoint_value("COc1cc2c(NS(=O)(=O)c3c(OC)cc(C(=O)N4CC(F)C4)cc3OC)noc2cc1Nc1cc(C2CC2)n[nH]1")
8.1
>>> endpoint_value("COc1cc2c(NS(=O)(=O)c3c(OC)cc(N4CC(F)C4)cc3OC)noc2cc1Nc1cc(C2CC2)n[nH]1")
5.7
>>> endpoint_value("COc1cc2c(NS(=O)(=O)c3c(OC)cc(C4CCOC4)cc3OC)noc2cc1Nc1cc(C2CC2)n[nH]1 (single isomer, unassigned) [Example 266]")
13.6

// Input: COc1cc2c(NS(=O)(=O)c3c(OC)cc(C(=O)N4CC(F)(F)C4)cc3OC)noc2cc1Nc1cc(C2CC2)n[nH]1 . Output its Ki only. 17.6
